Species: Rattus norvegicus
Test: Amount of cGMP level in rat neostriatal membranes after incubation at 1.0 uM
Type: functional

[
  {
    "Compound": "CCCN(C)[C@@H]1Cc2cc(F)c(OC)cc2[C@H]1c1ccccc1",
    "cGMP content (pmol/mg protein)": 6.86
  },
  {
    "Compound": "CCCN(CCc1ccccc1)CCc1cccc(O)c1",
    "cGMP content (pmol/mg protein)": 7.45
  },
  {
    "Compound": "CCCN(CCC)[C@@H]1Cc2cc(F)c(OC)cc2[C@H]1c1ccccc1",
    "cGMP content (pmol/mg protein)": 6.97
  },
  {
    "Compound": "NCCc1ccc(O)c(O)c1",
    "cGMP content (pmol/mg protein)": 6.15
  },
  {
    "Compound": "CCCN(C)[C@@H]1Cc2cc(O)c(F)cc2[C@H]1c1ccccc1",
    "cGMP content (pmol/mg protein)": 7.45
  },
  {
    "Compound": "CCCN(CCC)[C@@H]1Cc2cc(F)c(O)cc2[C@H]1c1ccccc1",
    "cGMP content (pmol/mg protein)": 7.32
  },
  {
    "Compound": "Oc1cc2c(cc1O)C(c1ccccc1)CNCC2 (stereo not given)",
    "cGMP content (pmol/mg protein)": 17.4
  },
  {
    "Compound": "CCN1CCCC1CNC(=O)c1cc(S(N)(=O)=O)ccc1OC (stereo not given)",
    "cGMP content (pmol/mg protein)": 17.3
  },
  {
    "Compound": "CCCN(C)[C@@H]1Cc2cc(F)c(O)cc2[C@H]1c1ccccc1",
    "cGMP content (pmol/mg protein)": 5.79
  },
  {
    "Compound": "CCCN(C)[C@@H]1Cc2cc(OC)c(F)cc2[C@H]1c1ccccc1",
    "cGMP content (pmol/mg protein)": 4.96
  }
]
